System: LOX IMVI
assayDetails: NCI tumour cell line growth inhibition, 48 h
Calls of active or inactive are those of the source. Cut-off read from the data, not from the text of the source: active = GI50 up to about 1.1 µM and inactive = higher.
quantityKind: GI50

Query "COc1ccc(S(=O)(=O)N/N=C\c2cc([N+](=O)[O-])cc(I)c2O)c(OC)c1OC" yields GI50 of 32.5 µM (inactive)

New cases:
Query "COC1(OC)CCCCCCCCC(OC)(OC)CCCCCCCC1" yields GI50 of > 100 µM (inactive)

Query CC(Sc1ccccc1)C(CO)(CO)[N+](=O)[O-] (centres undefined) yields GI50 of 7.85 µM (inactive)

Query COc1cc2cc(C(=O)N3CC(COS(C)(=O)=O)c4c3cc([N+](=O)[O-])c3ccccc43)[nH]c2c(OC)c1OC (centres undefined) yields GI50 of 33.2 µM (inactive)

Query CN(C)P(=O)(Oc1occc1C(O)Cc1ccccc1)N(C)C (centres undefined) yields GI50 of > 100 µM (inactive)

Query ON=C1CCC(c2ccccc2)CC1 (centres undefined) yields GI50 of > 100 µM (inactive)

Query "CCCCCCCCCCCCCCCCNC(=O)/C(=C\c1ccc(Cl)c(Cl)c1)NC(=O)c1ccccc1" yields GI50 of 21.9 µM (inactive)

Query "O=S(=O)(CCn1c(Sc2ccccc2)c(Sc2ccccc2)c2ccccc21)c1ccccc1" yields GI50 of > 100 µM (inactive)

Query O=C(Nc1ccc(Cl)cc1Cl)C(=O)C(C(=O)c1ccc2ccccc2c1)C1OC(=O)c2ccccc21 (centres undefined) yields GI50 of 5.19 µM (inactive)

Query "C/C(=N\NC(=O)Nc1ccccc1Cl)c1ccc(O)cc1" yields GI50 of 45.6 µM (inactive)

Query "CC(C)(C)c1cc(/C=C(\C#N)C2=NCCO2)cc(C(C)(C)C)c1O" yields GI50 of 5.96 µM (inactive)

Query "N#C/C(N)=C(C#N)/N=C/NCCO" yields GI50 of > 100 µM (inactive)

Query "CC(C)(C)c1cc(-c2c3nc(c(-c4cc(C(C)(C)C)cc(C(C)(C)C)c4)c4ccc([nH]4)c(-c4cc(C(C)(C)C)cc(C(C)(C)C)c4)c4nc(c(-c5cc(C(C)(C)C)cc(C(C)(C)C)c5)c5ccc2[nH]5)C=C4)C=C3)cc(C(C)(C)C)c1" yields GI50 of > 100 µM (inactive)

Query Cc1cccc(C(C)(C)C)c1NC(=O)C(=O)C(c1cnc2ccccc2n1)[N+](=O)[O-] (centres undefined) yields GI50 of > 100 µM (inactive)

Query "Cc1ccc(S(=O)(=O)CC(=O)CC(=O)C(=O)Nc2cccc(C(F)(F)F)c2)cc1" yields GI50 of > 100 µM (inactive)

Query "Cc1nc(Cl)c(C)c(Cl)n1" yields GI50 of 33 µM (inactive)

Query O=C1NC(O)CCN1C1CC(O)C(CO)O1 (centres undefined) yields GI50 of > 100 µM (inactive)

Query "N#CCN1CCN(CC#N)CCN(CC#N)CCN(CC#N)CC1" yields GI50 of 33.3 µM (inactive)

Query "O=C1C(c2c(O)[nH]c3ccc(Cl)cc23)=Nc2ccccc21" yields GI50 of 3.66 µM (inactive)

Query "COc1ccc(-c2cc(O)c3c(C)ccnc3n2)cc1" yields GI50 of 14.3 µM (inactive)

Query "Fc1nc(Sc2ncnc3nc[nH]c23)nc(-c2c3ccccc3c3sc4ccccc4n23)n1" yields GI50 of 80 µM (inactive)

====

System: SK-MEL-2
assayDetails: NCI tumour cell line growth inhibition, 48 h
Calls of active or inactive are those of the source. Cut-off read from the data, not from the text of the source: active = GI50 up to about 1.1 µM and inactive = higher.
Bench note: report the call from 1 (yes) = active, 0 (no) = inactive

Input line: Can you look up the reported call for "CN1CCC(=O)/C(=C/c2ccccc2)C1" for me?
Output line: 0 (no)

Input line: Can you look up the reported call for CC(=O)OC12c3ccccc3-c3ccccc3C1C(C(=O)O)C2C(=O)O (stereo not drawn) for me?
Output line: 0 (no)

Input line: Can you look up the reported call for COC1C(CO)OC(n2c3c(Cl)cccc3c3c4c(c5c6cccc(Cl)c6[nH]c5c32)C(=O)NC4=O)C(O)C1O (stereo not drawn) for me?
Output line: 1 (yes)

Input line: Can you look up the reported call for "O=C(CCc1ccccc1)n1cccc1CO" for me?
Output line: 0 (no)

Input line: Can you look up the reported call for "COC1(OC)CCCCCCCCC(OC)(OC)CCCCCCCC1" for me?
Output line: 0 (no)

New cases:
Input line: Can you look up the reported call for "COc1cc(OC)cc(OCc2nc3cc(C(F)(F)F)ccc3nc2-c2ccccc2)c1" for me?
Output line: 0 (no)

Input line: Can you look up the reported call for C=CC(OC(C)=O)c1ccc(OC(=O)C(C)C)c(OC)c1 (stereo not drawn) for me?
Output line: 0 (no)

Input line: Can you look up the reported call for COc1cc([C@@H]2OC(=O)C3C2C(=O)O[C@H]3c2cc(OC)c(OC)c(OC)c2)cc(OC)c1OC (stereo partly drawn) for me?
Output line: 0 (no)

Input line: Can you look up the reported call for "O=C1C(c2c(O)[nH]c3ccc(Cl)cc23)=Nc2ccccc21" for me?
Output line: 0 (no)

Input line: Can you look up the reported call for "O=c1c2cc(Br)ccc2ncn1COCc1ccccc1" for me?
Output line: 0 (no)

Input line: Can you look up the reported call for CC(C)c1ccc(/C=C2\CSCC3=C2N=C2SCC(=O)N2C3c2ccc(C(C)C)cc2)cc1 (stereo not drawn) for me?
Output line: 0 (no)

====

System: NCI-H522
assayDetails: NCI tumour cell line growth inhibition, 48 h
Calls of active or inactive are those of the source. Rule as the data show it: active = GI50 up to about 1.1 µM and inactive = higher.
Bench note: report the call from Y (active), N (inactive)

Example entries begin here.
Input line: Can you look up the reported call for "O=[N+]([O-])C(=C(Nc1ccccc1)Nc1ccccc1)C(Cl)=C(Cl)Cl" for me?
Output line: N

Input line: Can you look up the reported call for "O=C(CCN1CCOCC1)/C(=C/c1ccccc1)c1ccccc1" for me?
Output line: N

Input line: Can you look up the reported call for "Cc1cc(C(=C2C=CC(=[N+](C)C)C=C2)c2ccc([N+](C)(C)C)cc2)ccc1N(C)C" for me?
Output line: N

New cases:
Input line: Can you look up the reported call for CC1(C)C(c2ccccc2)C12CCC1(C2=O)C(c2ccccc2)C1(C)C (stereo not given) for me?
Output line: N

Input line: Can you look up the reported call for "Cc1c(/C=N/NC(=O)c2ccc(Cl)cc2)c(=O)n(-c2ccccc2)n1C" for me?
Output line: N

Input line: Can you look up the reported call for CC(=O)Oc1ccc2c(c1)Oc1cc(C(C)=O)ccc1C21OC(=O)c2ccccc21 (stereo not given) for me?
Output line: N

====

Tested on: M19-MEL
assayDetails: NCI tumour cell line growth inhibition, 48 h
Calls of active or inactive are those of the source. Rule as the data show it: active = GI50 up to about 1.1 µM and inactive = higher.
Bench note: report the call from active, inactive

Example entries begin here.
Input line: Can you look up the reported call for Cc1ccccc1NC(=O)C1C(=O)N(c2ccccc2C)C(=O)/C1=N\N (stereo unspecified) for me?
Output line: inactive

Input line: Can you look up the reported call for "CN(C)c1n/c(=N/c2ncn[nH]2)ss1" for me?
Output line: inactive

Input line: Can you look up the reported call for Cc1cccc(C(C)(C)C)c1NC(=O)C(=O)C(c1cnc2ccccc2n1)[N+](=O)[O-] (stereo unspecified) for me?
Output line: inactive

Input line: Can you look up the reported call for "O=C(CCn1[nH]c(=O)c(Cl)c(Cl)c1=O)NOCCCc1ccccc1" for me?
Output line: inactive

Could you now look at the following compound, please?
Input line: Can you look up the reported call for O=[N+]([O-])c1ccccc1[S+]([O-])c1ccccc1 (stereo unspecified) for me?
Output line: inactive

====

Each entry below lists one item and its recorded GI50 value.
System: OVCAR-3
assayDetails: NCI tumour cell line growth inhibition, 48 h
Active and inactive are the calls of the source. No stated cut-off is given here; in the data, active = GI50 up to about 1.1 µM and inactive = higher. Peptide text beside a SMILES is read from it. * marks the point of attachment. Boc = CC(C)(C)OC(=O)*; OtBu = CC(C)(C)O*

Field: example entries. Status: answers known.
Query OCC1CCCC1O (stereo not given) yields GI50 of > 100 µM (inactive)

Query COc1cc(C23OCC(Cc4cc5c(cc42)OCO5)C3CO)cc(OC)c1OC (stereo not given) yields GI50 of 1.46 µM (inactive)

Query CC(C)(C)OC(=O)CC(NC(=O)OC(C)(C)C)C(=O)NC(Cc1ccccc1)C(N)=O (stereo not given) (Boc-Asp(OtBu)-Phe-NH2; configuration not given here) yields GI50 of > 100 µM (inactive)

New cases:
Query "CC(C)(C)c1cc(-c2c3nc(c(-c4cc(C(C)(C)C)cc(C(C)(C)C)c4)c4ccc([nH]4)c(-c4cc(C(C)(C)C)cc(C(C)(C)C)c4)c4nc(c(-c5cc(C(C)(C)C)cc(C(C)(C)C)c5)c5ccc2[nH]5)C=C4)C=C3)cc(C(C)(C)C)c1" yields GI50 of > 100 µM (inactive)

Query Cc1nn(C(=O)c2ccccc2O)c2c1C(c1ccc3ccccc3c1O)SC(=N)N2 (stereo not given) yields GI50 of 2.69 µM (inactive)

Query CC1=C2C(c3ccccc3)(c3ccccc3)C3C=CC2(C=N3)N(C(=O)NC2CCCCC2)C1=O (stereo not given) yields GI50 of 14.8 µM (inactive)

Query CC1(c2nc3cc(Cl)c(Cl)cc3[nH]2)CCC(C(=O)O)C(C)(C)O1 (stereo not given) yields GI50 of > 100 µM (inactive)

Query "C(=C\c1cccs1)/c1cccc(/C=C/c2cccs2)n1" yields GI50 of 50.8 µM (inactive)

Query "Cc1cnoc1/N=C1\C=C(Nc2oncc2C)C(=O)c2ccccc21" yields GI50 of 9.86 µM (inactive)

Query "CCNc1nnc(-c2ccccc2Nc2ccccc2-c2nnc(NCC)s2)s1" yields GI50 of 18.3 µM (inactive)
